- System: IL-1β production in PMA-differentiated THP-1 cells
- Protocol description: IL-1β production in PMA-differentiated THP-1 cells stimulated with gramicidin (hTHP-1 assay containing 2% fetal bovine serum)
- Type: cell-based, human
- Particulars: Homo sapiens, THP-1, Table B1; 2% fetal bovine serum; class symbols; read-out: hTHP-1 IC50 (Average IC50 of compounds in hTHP-1 assay)
- Experimental: Procedure 1: IL-1β Production in PMA-Differentiated THP-1 Cells Stimulated with Gramicidin. THP-1 cells were purchased from the American Type Culture Collection and sub-cultured according to instructions from the supplier. […] THP-1 cells were purchased from the American Type Culture Collection and sub-cultured according to instructions from the supplier. […] Cell free supernatant (40 μL) was collected using a 96-channel PlateMaster (Gilson) and the production of IL-1β was evaluated by HTRF (cisbio). […]
Would you mind telling me the reported IC50 of each entry?

Worked examples, 2 molecules total:
> print(dat)
                                   molecule          reported
1  CC(C)c1cc2c(c(C(C)C)c1CC(=O)N=S(N)(=O)c1cccc(C(C)(C)O)c1)COC2 (stereo not drawn) [Example 266]   1000 to 5000 nM
2  CC(C)c1cnc(F)c(C(C)C)c1CC(=O)N=S(N)(=O)c1cnc(C(C)(C)O)s1 (single isomer, unassigned) [Example 315]  5000 to 30000 nM

We now examine a further molecule.
Assay IL-1β production in PMA-differentiated THP-1 cells, sample Cc1ccc(-c2cc(C(C)C)c(CC(=O)N=S(N)(=O)c3ncc(C(C)(C)O)s3)c(C(C)C)c2)cc1C (stereo not drawn) , IC50 read: 200 to 1000 nM

Taken from patent US20230059136A1.
